- experimental target: UniProt P0DTD1
- procedure summary: Inhibition of SARS-CoV-2 3CL-Pro proteolytic cleavage of a dual-labeled substrate by FRET at 1mM DTT.
- Format: functional
- Design: assay stage
The reply should be one of these categories: true (1) = active, false (0) = inactive

# example entries with known answers
Input: Outcome? O=C(O)[C@@H](S)[C@@H](S)C(=O)O
Output: true (1)

Input: Now the molecule c1ccc2sc(SSc3nc4ccccc4s3)nc2c1
Output: true (1)

Input: Now the molecule NC(Cc1cc(O)c(O)cc1O)C(=O)O (racemic)
Output: false (0)

Input: Now the molecule CCOc1cc(C(Nc2cc(C)ccn2)c2ccc3cccnc3c2O)ccc1OC (stereo unspecified)
Output: false (0)

Input: Now the molecule Cn1sc(=O)n(Cc2ccccc2)c1=O
Output: true (1)

Others:
Input: Outcome? O=C(c1ccc(Cl)cc1)c1cc([N+](=O)[O-])ccc1N1CCOCC1
Output: false (0)
